assay: Evaluation of oral absorbability; type: in vivo, BALB/cA mice; conditions: mouse; plasma, oral 50 mg/kg/day, BALB/cA mice
# log10 of AUC(0-t) annotations
Heads up, the numbers here are log10 of AUC(0-t) in µM·h units.

Observe how each entry below is paired with its result.
C=CC(=O)N1C[C@H](n2c(C#CC3CC3)c(C(=O)N[C@H](C)c3ccccc3)c3c(N)ncnc32)C[C@@H]1CC: 1.32
C=CC(=O)N1C[C@H](n2c(C#CC)c(C(=O)N[C@H](C)c3ccccc3)c3c(N)ncnc32)C[C@@H]1CC: 1.18
C=CC(=O)N1C[C@H](n2nc(C(=O)Nc3ccc(CC(=O)N(C)C)c(C)c3C)c3c(N)ncnc32)C[C@@H]1C [Comp. Ex. 2, reference compound]: 0.18
C=CC(=O)N1C[C@H](n2c(C#CC)c(C(=O)N[C@H](C)c3cc(F)cc(F)c3)c3c(N)ncnc32)C[C@@H]1C: 1.70

Please turn your attention to the following entry.
The measured log10 of AUC(0-t) associated with C=CC(=O)N1C[C@H](n2c(C#CCC)c(C(=O)N[C@H](C)c3ccccc3)c3c(N)ncnc32)C[C@@H]1C reads 1.43
